- Target Or Test System: HbS (Homo sapiens, UniProt P68871+P69905, E7V)
- Construct: HbS was obtained from the blood of homozygous S/S patients
- Protocol Summary: 'R'-'T' assay (conversion of oxy HbS to deoxy HbS under deoxygenating conditions)
- Conditions Used: 50% inhibition of HbS 'R'-'T' conversion; 3 uM HbS, <1% O2
pIC50: −log10 of the molar value.
Measured Endpoint: pIC50

Worked examples, 3 compounds total:
Compound | Measured
C[C@H](Oc1cc2cc(C(N)=O)ccc2nc1N)c1cc2[nH]ncc2cc1-n1cccn1 | 5.26
C[C@H](Oc1cc2cc(F)ccc2nc1N)c1nc(C(=O)O)ccc1-n1cccn1 | 5.17
C[C@H](Oc1cc2cc(F)cc(F)c2nc1N)c1[nH]c(=O)ccc1-n1cccn1 | 5.37

A: COC(=O)c1ccc(-n2cccn2)c([C@H](C)Oc2cc3cc(F)ccc3nc2N)c1
B: C[C@H](Oc1cc2cc([C@@H](C)O)ccc2nc1N)c1nc(O)ccc1-n1cccn1
IN: Looking at A and B , which one comes out lower in pIC50 terms? Your answer should be the label attached to the chosen record.
OUT: B
(B: 4.28, A: 5.35)

1: Cc1cc2nc(N)c(O[C@@H](C)c3nc4[nH]ncc4cc3-n3cccn3)cc2cn1
2: C[C@H](Oc1cc2cc(F)ccc2nc1N)c1cc2[nH]cnc2cc1-n1cccn1
IN: From the recorded data, which exceeds the other in pIC50: 1 or 2 ? Your answer should be the label attached to the chosen record.
OUT: 1
(1: 5.42, 2: 5.08)

a: COCCNC(=O)c1ccc(-n2cccn2)c([C@H](C)Oc2cc3cc(F)ccc3nc2N)c1
b: C[C@H](O)c1ccc2nc(N)c(O[C@@H](C)c3nc(O)ccc3-n3cccn3)cc2c1
IN: Looking at a and b , which one comes out lower in pIC50 terms? Your answer should be the label attached to the chosen record.
OUT: b
(b: 4.00, a: 5.36)

I: C[C@H](Oc1cc2ccccc2nc1N)c1ncc(F)cc1-n1cccn1
II: C[C@H](Oc1cc2cc(C(C)(C)O)ccc2nc1N)c1nc(O)ccc1-n1cccn1
IN: From the recorded data, which exceeds the other in pIC50: I or II ? Your answer should be the label attached to the chosen record.
OUT: I
